Molecular target: T1, NHERF1_1, O14745
T1 sequence (O14745 9-104, limits assumed, looked up): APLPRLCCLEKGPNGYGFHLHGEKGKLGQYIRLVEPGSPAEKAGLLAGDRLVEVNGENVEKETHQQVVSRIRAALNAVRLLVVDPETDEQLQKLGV
Assay: holdup assay
Set-up: key: below the threshold = too weak to quantify, mostly under pKd 3.1 to 4
Details: plain residues with an end cap or a label only (N-terminal biotin on a linker: ttds)
measurement_name: pKd

QSARYRDTEL [TJP2, Q9UDY2]    below the threshold
SVWLRKETRV [CYSLTR2, Q9NS75]    below the threshold
PKTPPTDTSV [KIR3DL3, Q8N743]    below the threshold
